System: Met-Fc
Test: Phage clone ELISA on control protein
Type: binding
Endpoint name: binding of phage clones to c-Met-Fc control protein

# count of solved cases: 4
Molecule	Reported result
R2PC12: phage-displayed human scFv clone binding VEGFR2; VH CDR1-3 SEQ ID NO: 6-8, VL CDR1/CDR3 SEQ ID NO: 9, 10 (antibody, V domains shown) VH: QVNLRESGGGLVKPGGSLRLSCAASGFTFGSYTMNWVRQAPGKGLEWVASITSGSSYIFYTDSVKGRFTISRDNSRSSLFLQMNSLRAEDTAIYYCARGSASAFDIWGQGTMVTVSS VL: DIQMTQSPSSLSASVGDRVTITCKASDDIINYLNWYQQKPGEAPKLLIYDASILETGVPSRFSGSGSGTDFTFTISSLQPEDIATYYCQQYDILPLTFGGGTKLEIK	not
R2PC28: phage-displayed human scFv clone binding VEGFR2; VH CDR1-3 SEQ ID NO: 11-13, VL CDR1/CDR3 SEQ ID NO: 14, 15 (antibody, V domains shown) VH: EVQLVESGGALVQPGGSLRLSCVGSEFTFSHYNLHWVRQAPGKGLEWLAVISDDGRNKYYGDSVKGRFTISRDNSKNTLYLQMNGLRAEDTAVYYCARVPTVWRGGVYDIWGQGTMVTVSS VL: EIVLTQSPATLSLSPGERATLSCRASQSVGSYLAWYQQRPGQPPRLLIYDASNRATGVAARFSGSGSGTDFTLTIDSLEAEDAATYYCHQSSSLPRTFGQGTKLEIK	not
R2PC8: phage-displayed human scFv clone binding VEGFR2; VH CDR1-3 SEQ ID NO: 1-3, VL CDR1/CDR3 SEQ ID NO: 4, 5 (antibody, V domains shown) VH: QVQLVQSGGGLVKPGGSLRLSCAASGFTFSSYSMSWVRQAPGKGLEWVSSISSSSSYIYYADSVKGRFTISRDNAKNSLYLQMNSLRAEDTAVYYCARSTDAFDIWGQGTMVTVSS VL: DIVMTQSPSSLSASVGDRVTITCRASQRISNYLNWYQHKSGEDPKLLIYAASSLQSGVPSRFSGSGSGTDFTLTISSLQPEDFATYYCQQYDRYPPTFGQGTKLEIK	not
R2PC45: phage-displayed human scFv clone binding VEGFR2; VH CDR1-3 SEQ ID NO: 21-23, VL CDR1/CDR3 SEQ ID NO: 24, 25 (antibody, V domains shown) VH: QVNLRESGGGVVQPGRSLRLSCAASGFTFSSYAMHWVRQAPGKGLEWVAVISYDGSNKYYADSVKGRFTISRDNSKNTLYLQMNSLRAEDTAVYYCAREQDYGSSSGDAFDIWGQGTMVTVSS VL: DIQMTQSPSSLSASVGDRVTITCRASQRISSYLNWYQQKPGKAPKLLIYDASNLQSGVPSRFSGSGSGTDFTLTINGLQPDDFAIYFCHQSYSAPPTFGQGTKVEIK	not

Below: the item to evaluate.
Value of binding of phage clones to c-Met-Fc control protein reported for the molecule R2PC29: phage-displayed human scFv clone binding VEGFR2; VH CDR1-3 SEQ ID NO: 16-18, VL CDR1/CDR3 SEQ ID NO: 19, 20 (antibody, V domains shown) VH: QVQLQQSGAEMKKSGSSVKVSCKASGGNFISKGISWVRQAPGQGLEWMGGIIPLFGTGNYAQKFQGRVTITADESTTTVYLQLTSLTPEDTAMYFCATADVDYSDSLEAFDMWGQGTMVTVSS VL: DIVMTQSPSSLSASVGDRVTITCRASQSINNYLNWYQQKPGKAPNLLIYGASSLQSGVPSRFRGSGSGTDFTLTISSLQPEDFATYYCQQSYSTPLFGQGTKLEIK is not
